As shown below, each of these binders has a reported glycan array binding signal (z-score) value.
target: Gal(b1-4)GlcNAc(b1-6)[Gal(b1-3)]GalNAc; experiment: glycan array binding signal (z-score within array); higher = stronger binding; details: glycan notation: IUPAC condensed, linker removed
The sample as a whole holds a higher share of the strongest signals than the screen did.

I have this binder here, TREM-2 (Mus musculus), Q99NH8 (protein) MGPLHQFLLLLITALSQALNTTVLQGMAGQSLRVSCTYDALKHWGRRKAWCRQLGEEGPCQRVVSTHGVWLLAFLKKRNGSTVIADDTLAGTVTITLKNLQAGDAGLYQCQSLRGREAEVLQKVLVEVLEDPLDDQDAGDLWVPEESSSFEGAQVEHSTSRNQETSFPPTSILLLLACVLLSKFLAASILWAVARGRQKPGTPVVRGLDCGQDAGHQLQILTGPGGT , and I need its recorded glycan array binding signal (z-score). -0.354

I have this binder here, HPA (Helix pomatia), Q2F1K8 (protein) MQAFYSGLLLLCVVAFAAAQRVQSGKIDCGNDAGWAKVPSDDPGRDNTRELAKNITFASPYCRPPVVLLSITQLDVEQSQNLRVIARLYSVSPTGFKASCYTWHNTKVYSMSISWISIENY , and I need its recorded glycan array binding signal (z-score). -0.255

I have this binder here, AMA (Arum maculatun) (protein) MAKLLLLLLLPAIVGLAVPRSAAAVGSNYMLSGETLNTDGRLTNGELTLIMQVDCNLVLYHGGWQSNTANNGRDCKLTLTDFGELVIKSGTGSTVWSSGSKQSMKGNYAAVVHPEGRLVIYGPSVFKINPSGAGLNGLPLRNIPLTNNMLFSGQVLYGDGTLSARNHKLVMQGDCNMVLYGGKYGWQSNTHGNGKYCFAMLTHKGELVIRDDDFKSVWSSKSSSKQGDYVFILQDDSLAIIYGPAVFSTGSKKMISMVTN , and I need its recorded glycan array binding signal (z-score). -0.212

I have this binder here, LecRKVI.2 (protein) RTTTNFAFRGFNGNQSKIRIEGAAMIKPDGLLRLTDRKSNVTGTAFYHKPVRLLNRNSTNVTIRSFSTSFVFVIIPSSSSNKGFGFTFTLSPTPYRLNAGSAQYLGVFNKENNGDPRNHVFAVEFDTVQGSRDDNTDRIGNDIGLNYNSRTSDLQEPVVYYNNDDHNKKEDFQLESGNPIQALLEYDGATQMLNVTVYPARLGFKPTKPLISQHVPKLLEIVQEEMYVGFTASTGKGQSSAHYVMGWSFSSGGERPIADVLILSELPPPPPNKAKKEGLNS , and I need its recorded glycan array binding signal (z-score). 1.83

I have this binder here, Flo11 (Saccharomyces cerevisiae), Q1H8S8 (protein) MGSSHHHHHHSSGLVPRGSHMFPTALVPRGSSEGTSCNSIVNGCPNLDFNWHMDQQNIMQYTLDVTSVSWVQDNTYQITIHVKGKENIDLKYLWSLKIIGVTGPKGTVQLYGYNENTYLIDNPTDFTATFEVYATQDVNSCQVWMPNFQIQFEYLQGSAAQYASSWQWGTTSFDLSTGCNNYDNQGHSQTDFPGFYWNIDCDNNCGGTKSS , and I need its recorded glycan array binding signal (z-score). -0.482

---
I have this binder here, CLEC5A (Homo sapiens), Q9NY25 (protein) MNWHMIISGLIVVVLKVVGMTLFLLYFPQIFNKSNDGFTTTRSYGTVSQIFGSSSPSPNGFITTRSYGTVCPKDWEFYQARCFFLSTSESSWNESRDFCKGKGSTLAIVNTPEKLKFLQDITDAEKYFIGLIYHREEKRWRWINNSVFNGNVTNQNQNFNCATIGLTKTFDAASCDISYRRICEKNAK , and I need its recorded glycan array binding signal (z-score). -0.196
